target: T1, Recombinant WEEV glycoprotein (E2/E3E2) (Western equine encephalitis virus, …, UniProt P13897); assay: SPR; ProteOn XPR36; […] (20 µg/mL in 10 mM sodium acetate pH 5.0); […]; settings: both partners purified
T1 construct: source: bought: IBT Bioservices
T1 sequence (P13897 whole entry, looked up): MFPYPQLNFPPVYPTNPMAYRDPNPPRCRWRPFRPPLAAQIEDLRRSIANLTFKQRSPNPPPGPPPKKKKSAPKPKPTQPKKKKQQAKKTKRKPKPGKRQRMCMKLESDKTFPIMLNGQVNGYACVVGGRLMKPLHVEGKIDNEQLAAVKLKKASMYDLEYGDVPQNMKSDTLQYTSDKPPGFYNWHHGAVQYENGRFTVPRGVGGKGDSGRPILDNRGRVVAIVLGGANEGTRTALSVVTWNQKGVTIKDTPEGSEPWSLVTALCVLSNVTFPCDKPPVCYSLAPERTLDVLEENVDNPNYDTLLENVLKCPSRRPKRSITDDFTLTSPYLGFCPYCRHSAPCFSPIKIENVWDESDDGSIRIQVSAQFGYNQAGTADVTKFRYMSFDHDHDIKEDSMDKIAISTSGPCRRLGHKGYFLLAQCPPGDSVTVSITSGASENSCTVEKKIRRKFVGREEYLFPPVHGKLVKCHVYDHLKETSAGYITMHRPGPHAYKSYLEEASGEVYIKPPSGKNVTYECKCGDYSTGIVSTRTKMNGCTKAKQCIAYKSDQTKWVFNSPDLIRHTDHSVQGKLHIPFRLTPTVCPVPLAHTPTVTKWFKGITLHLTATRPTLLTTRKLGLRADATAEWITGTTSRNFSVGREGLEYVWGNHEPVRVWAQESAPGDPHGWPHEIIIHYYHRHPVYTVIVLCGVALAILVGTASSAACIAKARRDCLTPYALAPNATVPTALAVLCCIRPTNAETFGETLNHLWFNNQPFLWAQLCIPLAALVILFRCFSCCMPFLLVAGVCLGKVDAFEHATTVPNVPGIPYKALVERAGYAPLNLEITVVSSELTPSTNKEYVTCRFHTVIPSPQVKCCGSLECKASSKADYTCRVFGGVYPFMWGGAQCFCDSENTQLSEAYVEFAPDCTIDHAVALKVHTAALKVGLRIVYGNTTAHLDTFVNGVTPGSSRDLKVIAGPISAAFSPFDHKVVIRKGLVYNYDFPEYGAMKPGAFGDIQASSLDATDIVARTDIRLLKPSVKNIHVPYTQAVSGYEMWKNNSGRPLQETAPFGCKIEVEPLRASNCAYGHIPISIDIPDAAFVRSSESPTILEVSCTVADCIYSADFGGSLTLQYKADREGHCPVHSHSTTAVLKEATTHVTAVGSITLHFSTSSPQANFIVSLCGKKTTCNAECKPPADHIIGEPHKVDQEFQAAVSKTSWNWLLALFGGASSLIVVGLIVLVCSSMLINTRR
If the reported kon equals or exceeds 200000 M⁻¹ s⁻¹, assign true (1). If not, assign false (0).

These recorded examples may help you get a feel for the data.
Binder	Group
anti-WEEV E2/E3E2 single-domain antibody WC10 (VHH, also called Bt-WC10) VHH: DVQLQASGGGLVEAGGSLRLSCTTSGISVRNSDMGWYRQGPGKQRELIARSSRGGATNYLDSVTGRFTISRDNIKNTVFLQMNSLKPEDTAVYYCNTNPINHWNVWGQGTQVTVSS	true (1)
anti-WEEV E2/E3E2 single-domain antibody WE10 (VHH, also called Bt-WE10) VHH: DVQLQASGGGLVQAGGSLRLSCVASGLTFVNYAIDWYRQAPGKEREVVAGMWNDGVAYYGDFVKGRFTIARDNAKNTVYLQMNNLKPEDTAVYFCGARSRPNLQYDYWGQGTQVTVSS	false (0)
anti-WEEV E2/E3E2 single-domain antibody WF4 (VHH, also called Bt-WF4) VHH: DVQLQASGGGLVQAGGSLRLSCAVSDNTTSLNGMGYYRGPPGKQREFVAYARNNGAPKYADSVMGRFTISVDNSKATVYLQMNNLGPEDTALYYCYAPDRWHTYWAGGTQVTVSS	false (0)
anti-WEEV E2/E3E2 single-domain antibody WH11 (VHH, also called Bt-WH11) VHH: EVQLQASGGGLVQAGGSLRLTCVASGLTFVNYALDWYRQAPGKERELVAGMWSDGVAYYGDFVKGRFTMSRDNAKNMVYLQMNSLEPEDTAVYSCAARSRPTTQYDYWGQGTQVTVSS	false (0)
anti-WEEV E2/E3E2 single-domain antibody WB9 (VHH, also called Bt-WB9) VHH: DVQLQASGGGLVQAGGSLRLSCATSGISVSNSDMGWYRQGPGKQRELVARNSRAGTTNYLDSVKGRFTISRDNAKNMVFLQMNSLKLEDTAVYYCNTNPINRWNIWGQGAQVTVSS	true (1)

Incoming: hey, is kon for this one >= 200000 M⁻¹ s⁻¹? anti-WEEV E2/E3E2 single-domain antibody WD11f (VHH, also called Bt-WD11f) VHH: EVQLQASGGGLVQSGGSLRLSCAGSGGTESSYRMAWFRQAPGTERVFVARVSDGGGSILYADSAKGRFTISRDNGKNTIHLQMFSLKPEDTAVYFCAAAFSWMPPSTVAADYEYWGQGTQVTVSS
Outgoing: true (1)
